Listed next: entries and their corresponding inhibition.
assay: 384-well plate pilot, post-Golgi transport modulator project, inhibition of yeast transport mutant growth (AID 636); conditions: absorbance 615 nm, about 18 h, hits give high values
Active and inactive are the calls of the source. No stated cut-off is given here; in the data, active means inhibition above about 31%; inactive means the rest.

q: Item under review: CN1C(=O)CC(N2CCC(C(N)=O)(N3CCCCC3)CC2)C1=O (configuration not stated) . Reported inhibition?
a: -6.8% (inactive)

q: Item under review: COc1ccccc1Nc1ccc(C(=O)NC2CCCCC2)cn1 . Reported inhibition?
a: -3.92% (inactive)

q: Item under review: COc1nc(N2CCOCC2)nc(-n2cccc2)n1 . Reported inhibition?
a: -4.08% (inactive)

q: Item under review: Cc1cc(NC(=O)c2ccccc2Oc2ccccc2)no1 . Reported inhibition?
a: -5.33% (inactive)

q: Item under review: CC(C(=O)N1CCOCC1)N1c2cccc3cccc(c23)S1(=O)=O (configuration not stated) . Reported inhibition?
a: -2.76% (inactive)

Next:
q: Item under review: O=C(NC12CC3CC(CC(C3)C1)C2)C1CCCN1C(=O)NC1CCCCC1 (configuration not stated) . Reported inhibition?
a: -6.62% (inactive)

q: Item under review: CCN(CC)c1ccc(-c2nn3c(-c4cccnc4)nnc3s2)cc1 . Reported inhibition?
a: -5.92% (inactive)

q: Item under review: CCOC(=O)N1CCN(c2c(NCCN(C)Cc3ccccc3)c(=O)c2=O)CC1 . Reported inhibition?
a: 0.27% (inactive)

q: Item under review: c1ccc(CNc2c3c(nc4ncnn24)CCCC3)nc1 . Reported inhibition?
a: -5.34% (inactive)

q: Item under review: NC(=O)c1cccc(S(=O)(=O)N2CCCCC2)c1 . Reported inhibition?
a: -7.84% (inactive)

q: Item under review: FC(F)(F)c1cc(-c2ccccc2)nc(N2CCCCC2)n1 . Reported inhibition?
a: -4.53% (inactive)

q: Item under review: CCCS(=O)(=O)Nc1c(C(=O)O)[nH]c2ccccc12 . Reported inhibition?
a: -5.13% (inactive)

q: Item under review: COC(=O)c1ccccc1S(=O)(=O)N(CCCN1CCOCC1)Cc1cccs1 . Reported inhibition?
a: -1.45% (inactive)

q: Item under review: COc1ccc(C2(C(=O)N3CCCC3)CCOCC2)cc1OC . Reported inhibition?
a: 3.21% (inactive)

q: Item under review: O=C(NCCc1ccccn1)c1ccc(COc2ccccc2)o1 . Reported inhibition?
a: -2.99% (inactive)

q: Item under review: O=C(CSc1ncn[nH]1)c1ccco1 . Reported inhibition?
a: -1.56% (inactive)

q: Item under review: CCn1c(=O)n(CC(=O)Nc2cc(OC)ccc2OC)c(=O)c2ccccc21 . Reported inhibition?
a: -0.66% (inactive)

q: Item under review: COc1cc(-c2nnc(SCC(=O)c3ccc(C)cc3)o2)cc(OC)c1OC . Reported inhibition?
a: -1.45% (inactive)

q: Item under review: COC(=O)c1ccccc1NC(=O)CSc1nnnn1C1CCCCC1 . Reported inhibition?
a: -5.6% (inactive)

q: Item under review: COCCNC(=O)CCc1nc(-c2ccccc2)no1 . Reported inhibition?
a: -3.47% (inactive)

q: Item under review: O=C(NC1CCCC1)C(c1ccco1)N(Cc1ccccc1)C(=O)c1csnn1 (configuration not stated) . Reported inhibition?
a: -8.65% (inactive)

q: Item under review: O=S(c1ccsc1)c1ccsc1 . Reported inhibition?
a: 1.6% (inactive)

q: Item under review: Cc1ccc(S(=O)(=O)n2nc(OC(=O)c3ccco3)cc2N)cc1 . Reported inhibition?
a: -6.32% (inactive)

q: Item under review: COc1cc(OC)c(C2C(C#N)=C(N)OC3=C2C(=O)CC(C)(C)C3)cc1OC (configuration not stated) . Reported inhibition?
a: 0.91% (inactive)

q: Item under review: CCC(C)NC(=O)C1CCCN(S(=O)(=O)c2ccc(-n3cnnn3)cc2)C1 (configuration not stated) . Reported inhibition?
a: -2.97% (inactive)

Where do the numbers come from? From PubChem BioAssay.
